# inhibition values compiled below
- Measured on: Dual specificity protein phosphatase 6 (Homo sapiens)
- Protocol summary: DUSP6 inhibitors restoring Erk phosphorylation by chemical complementation, primary imaging in DUSP6-transfected HeLa (AID 609);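 also: phospho-Erk level distribution per well compared with pooled transfected vehicle control wells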
- Run conditions: HeLa MKP-3 transfected, phospho-Erk imaging KS statistic; at 10 µM; hits give high values; cells stimulated with TPA for 15 min
The source made the active and inactive calls.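 The calls were made as follows: active = compounds giving at least 50% inhibition in the cell-based MKP-3 phosphatase rescue imaging test; inactive = the rest.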

Molecule: CCCc1cc(=O)oc2c(CN3CCCC3)c(O)c(Cl)cc12
inhibition: 22.8% (inactive)
--
Molecule: Nc1nnc(Cc2ccc(Cl)c(Cl)c2)s1
inhibition: -7.86% (inactive)
--
Molecule: O=C1CCC(=O)N1CN(C(=O)c1ccco1)c1ccc(Cl)c(Cl)c1
inhibition: -3.5% (inactive)
--
Molecule: CCCc1[nH]nc2c1C(c1cccc(OC)c1)C(C#N)=C(N)O2 (stereo unspecified)
inhibition: 1.04% (inactive)
--
Molecule: Cc1ccc(C(=O)C2=C(O)C(=O)N(c3ncccn3)C2c2cccc(Cl)c2)o1 (stereo unspecified)
inhibition: 0.671% (inactive)
--
Molecule: CCCCCCOC(=O)CCn1[nH]c(=O)c2ccccc2c1=O
inhibition: 7.93% (inactive)
--
Molecule: c1ccc(Cc2nn[nH]n2)cc1
inhibition: -3.95% (inactive)
--
Molecule: CCOC(=O)C1CCN(c2nc3ccccc3nc2C(C#N)C(=O)OCCOC)CC1 (stereo unspecified)
inhibition: -11.5% (inactive)
--
Molecule: CCOC(=O)c1c(NC(=O)CCN2CCOCC2)sc2c1CC(C)(C)OC2
inhibition: -7.28% (inactive)
--
Molecule: Cc1ccc2c(c1)C(CCN)C(=O)N2Cc1ccccc1 (stereo unspecified)
inhibition: -15% (inactive)
--
Molecule: COC(=O)c1ccc(C2/C(=C(/O)c3ccc(OC)cc3)C(=O)C(=O)N2c2cc(C)on2)cc1 (stereo unspecified)
inhibition: 1.6e-07% (inactive)
--
Molecule: CCOC(=O)C1(c2nc(N)cs2)COC(=O)C1 (stereo unspecified)
inhibition: 16% (inactive)
--
Molecule: O=C(Nc1nc(=O)c2ccccc2s1)c1ccccc1
inhibition: 9.61% (inactive)
--
Molecule: CC(=O)c1c(C(C)=O)c(C)n(NC(=O)c2ccncc2)c1C
inhibition: 5.26% (inactive)
--
Molecule: Cc1cc(C)c(NC(=O)OCCN2CCOCC2)c(C)c1
inhibition: 3.56% (inactive)
--
Molecule: CC(C)(C)C1CCC2(CC1)C(C#N)=C(SCC(=O)Nc1ccccc1)NC(=O)C2C#N (stereo unspecified)
inhibition: 9.39% (inactive)
--
Molecule: CNC(=O)CC(C(=O)O)c1ccc(OC(C)C)cc1 (stereo unspecified)
inhibition: -2.09% (inactive)
--
Molecule: Cn1c2c(c(=O)n(C)c1=O)C(NC(=O)c1cccs1)(C(F)(F)F)C(=O)N2 (stereo unspecified)
inhibition: 8.76% (inactive)
--
Molecule: CC(C)C1=C2OC(N)=C(C#N)C(C#N)=C2C(C)CC1 (stereo unspecified)
inhibition: 7.48% (inactive)
--
Molecule: O=c1[nH]c(-c2ccccn2)nc2ccccc12
inhibition: 1.48% (inactive)
--
Molecule: CCOC(=O)C1=C(N)c2ccccc2CC1C(C)C (stereo unspecified)
inhibition: 4.72% (inactive)
--
Molecule: S=c1nc(-c2ccccc2)[nH]n1-c1ccccc1
inhibition: 11.4% (inactive)
--
Molecule: CCOC(=O)CC(=O)CSc1nc2c(cc1C#N)CCCCC2
inhibition: 6.51% (inactive)
--
Molecule: CC1C/C=C/C=C/C=C/C=C/C(O[C@@H]2O[C@H](C)[C@@H](O)[C@H](N)[C@@H]2O)CC2OC(O)(CC(O)CC3OC3/C=C/C(=O)O1)CC(O)C2C(=O)O (stereo partly specified)
inhibition: 11.3% (inactive)
--
Molecule: Nn1c(SCC(=O)Nc2ccc3c(c2)OCCO3)nnc1C(F)(F)F
inhibition: 10.9% (inactive)
--
Molecule: CC(=O)OC(C)C[N+](C)(C)C (stereo unspecified)
inhibition: 5.42% (inactive)
--
Molecule: CCN(CC)CCN1C(=O)C(=O)/C(=C(/O)c2ccc(OC(C)C)cc2)C1c1ccncc1 (stereo unspecified)
inhibition: -6.48% (inactive)
--
Molecule: NS(=O)(=O)c1ccc(-c2ccc(C=NC3CCS(=O)(=O)C3)o2)cc1 (stereo unspecified)
inhibition: -4.7% (inactive)
--
Molecule: CC1CN(C2CCN(S(=O)(=O)c3ccccc3)CC2)CC(C)O1 (stereo unspecified)
inhibition: 4.37% (inactive)
--
Molecule: COC(=O)c1sc(NC(C)=O)c(C(=O)OC)c1C
inhibition: 6.04% (inactive)
--
Molecule: O=C(Nc1ccc2c(c1)OCO2)c1cc2n(n1)C(C(F)(F)F)CC(c1ccccc1)N2 (stereo unspecified)
inhibition: 7.48% (inactive)
--
Molecule: c1coc(-c2nnc3sc(-c4cccs4)nn23)c1
inhibition: -13.3% (inactive)
--
Molecule: CCC1(C)Cc2c(sc3c2c(=O)n(C)c2nnc(SCc4ccccc4)n32)CO1 (stereo unspecified)
inhibition: 3.56% (inactive)
--
Molecule: CN(C)c1ccc(C=NCCC2(O)CCOC(C)(C)C2)cc1 (stereo unspecified)
inhibition: 8.76% (inactive)
--
Molecule: COc1ccccc1-c1nn2c(-c3ccc(C(C)(C)C)cc3)nnc2s1
inhibition: -7.86% (inactive)
--
Molecule: COc1cccc(-c2nc(NCc3ccco3)c3ccccc3n2)c1O
inhibition: -10.5% (inactive)
--
Molecule: CCN(CC)CCN1C(=O)C(O)=C(C(=O)c2ccco2)C1c1ccccn1 (stereo unspecified)
inhibition: 3.5% (inactive)
--
Molecule: O=C1[C@@H]2[C@H](C(=O)N1n1cnnc1)[C@H]1C=C[C@@H]2C1
inhibition: 4.25% (inactive)
--
Molecule: CCCCCc1nc2sc3c(c2c(=O)n1N)CCC3
inhibition: -9.7% (inactive)
--
Molecule: C[C@]12CC[C@@H]3c4ccc(OC(=O)c5ccccc5)cc4CC[C@H]3[C@@H]1CC[C@@H]2O
inhibition: -6.41% (inactive)
--
Molecule: N#Cc1c(N)nc(SCC(=O)NCCc2ccccc2)c(C#N)c1-c1cccs1
inhibition: 7.83% (inactive)
